# testTarget: T1, IL-23R (human, UniProt Q5VWK5 24-629)
# T1 sequence (looked up): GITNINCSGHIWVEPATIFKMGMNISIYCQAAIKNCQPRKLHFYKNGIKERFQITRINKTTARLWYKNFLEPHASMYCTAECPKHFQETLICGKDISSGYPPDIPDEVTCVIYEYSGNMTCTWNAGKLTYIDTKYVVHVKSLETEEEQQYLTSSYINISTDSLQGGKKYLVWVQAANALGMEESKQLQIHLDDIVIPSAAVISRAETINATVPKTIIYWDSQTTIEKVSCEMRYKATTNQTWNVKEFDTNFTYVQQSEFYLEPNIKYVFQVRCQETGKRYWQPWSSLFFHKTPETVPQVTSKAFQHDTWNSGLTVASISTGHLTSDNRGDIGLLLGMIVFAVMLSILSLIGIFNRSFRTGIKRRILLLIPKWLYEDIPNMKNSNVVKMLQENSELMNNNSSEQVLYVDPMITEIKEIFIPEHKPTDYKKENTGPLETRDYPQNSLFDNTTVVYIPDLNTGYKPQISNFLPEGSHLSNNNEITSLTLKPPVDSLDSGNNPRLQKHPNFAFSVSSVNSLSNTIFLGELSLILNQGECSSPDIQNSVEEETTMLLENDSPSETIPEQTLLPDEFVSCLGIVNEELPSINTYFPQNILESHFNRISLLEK
# method: cell-based or functional assay
Bridge positions count the residues as written; N and C are the ends. Square brackets hold non-standard residues; d marks the D form. Trp(7-Me) = Cc1cccc2c(C[C@H](N)C(=O)O)c[nH]c12; 2Nal = N[C@@H](Cc1ccc2ccccc2c1)C(=O)O; AEF = NCCOc1ccc(C[C@H](N)C(=O)O)cc1; Cit = NC(=O)NCCC[C@H](N)C(=O)O; Pen = CC(C)(S)[C@H](N)C(=O)O; αMeK = C[C@](N)(CCCCN)C(=O)O; Aib = CC(C)(N)C(=O)O
assayReadout: NK Cell Assay (nM) IC50

QUERY: Suppose we examine the binder XNTXQXXXXKNX (Ac-[Pen]-NT-[W(7-Me)]-Q-[Pen]-Phe[4-(2-aminoethoxy)]-[2-Nal]-[a-MeLys]-[Lys(Ac)]-N-[bA]-NH2; Pen-Pen disulfide) [SEQ ID NO: 202] ; what NK Cell Assay (nM) IC50 value has been reported?
RESULT: < 10 nM

New cases:
QUERY: Suppose we examine the binder XNTXQXXXXKAX (Ac-[Pen]-NT-[W(7-Me)]-Q-[Pen]-Phe[4-(2-aminoethoxy)]-[2-Nal]-[a-MeLeu]-[Lys(Ac)]-A-[bA]-NH2; Pen-Pen disulfide) [SEQ ID NO: 207] ; what NK Cell Assay (nM) IC50 value has been reported?
RESULT: < 10 nM

QUERY: Suppose we examine the binder XNTXQXXXXKLX (Ac-[Pen]-NT-[W(7-Me)]-Q-[Pen]-Phe[4-(2-aminoethoxy)]-[2-Nal]-[a-MeLeu]-[Lys(Ac)]-L-[bA]-NH2; Pen-Pen disulfide) [SEQ ID NO: 208] ; what NK Cell Assay (nM) IC50 value has been reported?
RESULT: < 10 nM

QUERY: Suppose we examine the binder XNTXQXXXXKNX (Ac-[Pen]-NT-[W(1-Me)]-Q-[Pen]-Phe[4-(2-aminoethoxy)]-[2-Nal]-[a-MeLys]-[Lys(Ac)]-N-[bA]-NH2; Pen-Pen disulfide) [SEQ ID NO: 232] ; what NK Cell Assay (nM) IC50 value has been reported?
RESULT: < 10 nM

QUERY: Suppose we examine the binder Ac-[Pen]NT[Trp(7-Me)][Cit][Pen][AEF][2Nal][αMeK]K(Ac)N[Aib]-NH2 (disulfide 1-6 (inferred)) [SEQ ID NO: 264] ; what NK Cell Assay (nM) IC50 value has been reported?
RESULT: < 10 nM
